Reported concentration at 0.5 h values are given for each entry in this list.
- assay.remarks: Rat B/P (brain disposition)
- Assay type: in vivo, male Sprague-Dawley rats
- conditions.used: male, Sprague-Dawley, plasma, oral gavage 5 mg/kg, time point 0.5 h, mean ± stdev, n = 3, read-out: Total plasma concentration
Remember to quote the unit after the number.

Cc1c2c(nn1[C@H]1CCOC[C@]1(C)F)OCCCn1nc(Cl)c3cnc(nc31)N2 (single isomer, unassigned)
83 ng/mL

Turning now to a further record.
Please report the measured concentration at 0.5 h for Cc1c2c(nn1[C@@H]1CC1(F)F)OCCCn1nc(Cl)c3cnc(nc31)N2 (single isomer, unassigned)
72 ng/mL
